# MEASUREMENT_NOTES: MRT(0 to t) in Sprague-Dawley rat at 24 mg/kg, po by LC-MS analysis
# Assay type: ADME, organism-based
# SETUP_CONDITIONS: in vivo
OBSERVATION_TYPE: MRT last (h)

>>> observed_result("Cc1cc(/C=C/C#N)cc(C)c1Oc1nc(NC2CCN(Cc3ccc(S(N)(=O)=O)cc3)CC2)nc2ccsc12")
3.71

###

# MEASUREMENT_NOTES: Selectivity index, ratio of CC50 for human MT4 cells to EC50 for reverse transcriptase L100I mutant in human MT4 cells infected HIV1 3B
# SETUP_CONDITIONS: MT4 cells
Assign class by selectivity ratio: not lower than 200 means yes (1); lower than 200 means no (0).

>>> label_class("Cc1cc(C#N)cc(C)c1Oc1nc(NC2CCN(Cc3cccc(C(N)=O)c3)CC2)nc2sccc12")
"yes (1)"
>>> label_class("Cc1cc(C#N)cc(C)c1Oc1nc(NC2CCN(Cc3ccc(C(N)=O)cc3)CC2)nc2sccc12")
"no (0)"
>>> label_class("CCOC(=O)C1CN(Cc2ccc(S(N)(=O)=O)cc2)CCC1Nc1nc(Oc2c(C)cc(C#N)cc2C)c2sccc2n1 (stereo not given)")
"no (0)"
>>> label_class("Cc1cc(/C=C/C#N)cc(C)c1Oc1nc(NC2CCN(Cc3cccc(F)c3)CC2)nc2ccsc12")
"yes (1)"
>>> label_class("Cc1cc(C#N)cc(C)c1Oc1nc(NC2CCN(Cc3ccc(S(N)(=O)=O)cc3)CC2C(=O)O)nc2ccsc12 (stereo not given)")
"no (0)"
>>> label_class("Cc1cc(/C=C/C#N)cc(C)c1Oc1nc(NC2CCN(Cc3ccc([N+](=O)[O-])cc3)CC2)nc2ccsc12")
"no (0)"
>>> label_class("Cc1cc(C#N)cc(C)c1Oc1nc(NC2CCN(Cc3ccc(S(N)(=O)=O)cc3)CC2)nc2ccsc12")
"yes (1)"
>>> label_class("Cc1cc(C#N)cc(C)c1Oc1nc(NC2CCC(NCc3ccc([N+](=O)[O-])cc3)CC2)nc2ccsc12 (stereo not given)")
"no (0)"
>>> label_class("Cc1cc(C#N)cc(C)c1Oc1nc(NC2CCC(NCc3ccc(S(C)(=O)=O)cc3)CC2)nc2ccsc12 (stereo not given)")
"no (0)"
>>> label_class("COC(=O)c1ccc(CN2CCC(Nc3nc(Oc4c(C)cc(C#N)cc4C)c4ccsc4n3)CC2)cc1")
"yes (1)"
>>> label_class("Cc1cc(C#N)cc(C)c1Oc1nc(NC2CCN(Cc3ccc(S(C)(=O)=O)cc3)CC2)nc2sccc12")
"no (0)"
>>> label_class("Cc1cc(/C=C/C#N)cc(C)c1Oc1nc(NC2CCN(Cc3cccc(C#N)c3)CC2)nc2ccsc12")
"yes (1)"
>>> label_class("Cc1cc(C#N)cc(C)c1Oc1nc(NC2CCC(NCc3ccc(F)cc3)CC2)nc2ccsc12 (stereo not given)")
"no (0)"
>>> label_class("Cc1cc(C#N)cc(C)c1Oc1nc(NC2CCC(NCc3ccc(Br)cc3)CC2)nc2ccsc12 (stereo not given)")
"no (0)"
>>> label_class("Cc1cc(/C=C/C#N)cc(C)c1Oc1nc(NC2CCN(Cc3ccc(F)cc3)CC2)nc2ccsc12")
"no (0)"
>>> label_class("Cc1cc(/C=C/C#N)cc(C)c1Oc1nc(NC2CCN(Cc3ccccn3)CC2)nc2ccsc12")
"yes (1)"
>>> label_class("Cc1cc(C#N)cc(C)c1Oc1nc(NC2CCC(NCc3ccc(O)cc3)CC2)nc2ccsc12 (stereo not given)")
"no (0)"
>>> label_class("Cc1cc(C#N)cc(C)c1Oc1nc(NC2CCC(NCc3cccc(C(F)(F)F)c3)CC2)nc2ccsc12 (stereo not given)")
"no (0)"
>>> label_class("Cc1cc(/C=C/C#N)cc(C)c1Oc1nc(NC2CCN(Cc3ccccc3F)CC2)nc2ccsc12")
"no (0)"
>>> label_class("Cc1ccc(CN2CCC(Nc3nc(Oc4c(C)cc(/C=C/C#N)cc4C)c4sccc4n3)CC2)cc1")
"no (0)"
>>> label_class("Cc1cc(/C=C/C#N)cc(C)c1Oc1nc(NC2CCN(Cc3ccc(Br)cc3)CC2)nc2ccsc12")
"no (0)"
>>> label_class("Cc1cc(/C=C/C#N)cc(C)c1Oc1nc(NC2CCN(Cc3cccc(Br)c3)CC2)nc2ccsc12")
"yes (1)"
>>> label_class("Cc1cc(/C=C/C#N)cc(C)c1Oc1nc(NC2CCN(Cc3cccnc3)CC2)nc2ccsc12")
"yes (1)"
>>> label_class("Cc1ccccc1CN1CCC(Nc2nc(Oc3c(C)cc(/C=C/C#N)cc3C)c3sccc3n2)CC1")
"no (0)"
>>> label_class("Cc1cc(C#N)cc(C)c1Oc1nc(NC2CCC(NCc3ccccc3)CC2)nc2ccsc12 (stereo not given)")
"no (0)"
>>> label_class("Cc1cc(/C=C/C#N)cc(C)c1Oc1nc(NC2CCN(Cc3ccccc3Cl)CC2)nc2ccsc12")
"no (0)"
>>> label_class("Cc1cc(/C=C/C#N)cc(C)c1Oc1nc(NC2CCN(Cc3ccncc3)CC2)nc2ccsc12")
"yes (1)"
>>> label_class("Cc1cc(C#N)cc(C)c1Oc1nc(NC2CCC(NCc3ccc(C#N)cc3)CC2)nc2ccsc12 (stereo not given)")
"no (0)"
>>> label_class("Cc1cc(/C=C/C#N)cc(C)c1Oc1nc(NC2CCN(Cc3ccc(Cl)cc3)CC2)nc2ccsc12")
"no (0)"
>>> label_class("Cc1cc(/C=C/C#N)cc(C)c1Oc1nc(NC2CCN(Cc3ccccc3C#N)CC2)nc2ccsc12")
"no (0)"
>>> label_class("Cc1cc(/C=C/C#N)cc(C)c1Oc1nc(NC2CCN(Cc3cccc(Cl)c3)CC2)nc2ccsc12")
"no (0)"
>>> label_class("Cc1cc(C#N)cc(C)c1Oc1nc(NC2CCN(Cc3ccc(S(N)(=O)=O)cc3)CC2)nc2sccc12")
"yes (1)"
>>> label_class("Cc1cc(C#N)cc(C)c1Oc1nc(NC2CCN(Cc3ccc(S(N)(=O)=O)cc3)CC2F)nc2ccsc12 (stereo not given)")
"yes (1)"
